# target-entity: BRAF V600E (Homo sapiens, UniProt P15056, V600E)
# Construct: endogenous C-terminal HiBiT fusion tag on BRAF V600E allele; endogenous in cells; host or cells: A375 clone 1F10 (CRISPR-Cas9 knock-in of the HiBiT tag; parental A375 from ATCC)
# Sequence (P15056 whole entry V600E, the tested form may be a part): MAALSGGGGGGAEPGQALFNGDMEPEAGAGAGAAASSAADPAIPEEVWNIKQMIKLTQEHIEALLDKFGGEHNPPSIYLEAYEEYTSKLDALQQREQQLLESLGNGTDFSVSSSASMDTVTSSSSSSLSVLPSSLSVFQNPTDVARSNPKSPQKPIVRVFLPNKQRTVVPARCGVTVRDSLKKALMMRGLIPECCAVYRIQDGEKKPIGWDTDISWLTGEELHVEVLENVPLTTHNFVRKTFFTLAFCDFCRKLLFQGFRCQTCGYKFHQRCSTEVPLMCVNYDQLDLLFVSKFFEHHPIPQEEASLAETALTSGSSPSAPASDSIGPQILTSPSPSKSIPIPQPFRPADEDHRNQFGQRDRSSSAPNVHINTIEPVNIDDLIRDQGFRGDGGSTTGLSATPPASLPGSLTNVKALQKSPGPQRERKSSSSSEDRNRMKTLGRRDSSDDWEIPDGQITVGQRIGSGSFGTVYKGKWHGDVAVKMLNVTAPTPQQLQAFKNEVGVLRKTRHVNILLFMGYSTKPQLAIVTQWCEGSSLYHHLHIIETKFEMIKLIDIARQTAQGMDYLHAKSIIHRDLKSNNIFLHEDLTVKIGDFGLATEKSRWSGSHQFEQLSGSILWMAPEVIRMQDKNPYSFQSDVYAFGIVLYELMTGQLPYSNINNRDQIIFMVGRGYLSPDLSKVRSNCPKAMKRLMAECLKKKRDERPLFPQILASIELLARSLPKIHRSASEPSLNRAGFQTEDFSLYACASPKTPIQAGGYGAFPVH
# test-details: BRAF HiBiT degradation assay, C-terminal HiBiT-tagged BRAF V600E A375 cells (clone 1F10), Nano-Glo HiBiT Lytic assay
# Format: cell-based
# experimental-context: A-375; A375 (BRAF V600E, Class 1); observed Dmax, % protein degraded relative to DMSO control
For each record, write down the corresponding Dmax.

I am curious: what Dmax value has been reported for O=C1CC[C@H](c2ccc(N3CCC(CN4CCN(c5ccc(-n6cc(-c7cc(Cl)cc(NS(=O)(=O)N8CCCC8)c7F)c(-c7ccncc7)n6)cc5)CC4)CC3)nc2)C(=O)N1 [Compound 285] ?
> 70%

I am curious: what Dmax value has been reported for O=C1CCC(c2ccc(N3CCC(CN4CCN(c5ccc(-n6cc(-c7cc(Cl)cc(NS(=O)(=O)N8CC(F)C8)c7F)c(-c7ccncc7)n6)c(F)c5)CC4)CC3)nc2)C(=O)N1 (racemic) [Compound 337] ?
> 70%

I am curious: what Dmax value has been reported for O=C1CCN(c2ccc(N3CCC(CN4CCN(c5ccc(-n6cc(-c7cc(Cl)cc(NS(=O)(=O)N8CC[C@@H](F)C8)c7F)c(-c7ccncc7)n6)cc5)CC4)CC3)nc2)C(=O)N1 [Compound 263] ?
> 70%
